B1: minF1; a variant is named by its letters at N, in order (parent)
chain: GAGACCGCAACTGAAAAGTTGTTNNNNAANNNNGGNTNNATTTCTGCACGTAGAAGCAAAAGGC

- Variants of: B1
- assayInfo: fraction ligated after 30 min (ligated reads / total reads); higher = more ligase activity
- assaySetup: with F1*subA RNA substrate (template-directed ligation), 42 °C
fraction ligated vs 0.004: at or above is true (1), below is false (0).

Exercise: Does the variant `TCAGTGGTGTG` have recorded fraction ligated that is 0.004 or more?
Key: false (0)

Exercise: Does the variant ATCAAATGGTT A28G G34A T37G A40G have recorded fraction ligated that is 0.004 or more?
Key: false (0)

Exercise: Record ATAGGGAGTGA A29T ; criterion: fraction ligated no lower than 0.004. Met?
Key: true (1)

Exercise: Is fraction ligated at least 0.004? Consider TGAAGATGTGA A29G
Key: false (0)

Exercise: Determine whether measured fraction ligated meets or exceeds 0.004 for CAAAGATGTGA A28T A29G
Key: false (0)

Exercise: Please check the record TAGAGGTGTGA A29T and state if its fraction ligated is at or above 0.004.
Key: false (0)

Exercise: Test whether the variant TCAGAGTGTGA T23A records fraction ligated of 0.004 or higher.
Key: false (0)

Exercise: Test whether the variant TCGATGGTTGA T23A records fraction ligated of 0.004 or higher.
Key: false (0)

Exercise: Say whether ACGATGGAGTG G34T shows fraction ligated of 0.004 or more.
Key: true (1)

Exercise: // inclusive: fraction ligated at least 0.004? input: AGAAGGATTGA T23C A29T
Key: true (1)

Exercise: Check the entry `TCGATGAGTGA` : does fraction ligated equal or exceed 0.004?
Key: false (0)

Exercise: Has ATCATGGAGTA A28G G34T a recorded fraction ligated greater than or equal to 0.004?
Key: true (1)

Exercise: Test whether the variant `ATGATGGTGTG` records fraction ligated of 0.004 or higher.
Key: true (1)

Exercise: Hi team, for ATAGTGGAGTA G34T , is the recorded fraction ligated at or above 0.004?
Key: true (1)

Exercise: Can `TAGATGATGTA` be said to have fraction ligated at or above 0.004?
Key: false (0)

Exercise: Please tell me: is the variant ATAAGATGTGA A29G at or over 0.004 in terms of fraction ligated?
Key: true (1)

Exercise: Given the entry `ATCAATATTGA` , answer whether its fraction ligated meets or surpasses 0.004.
Key: false (0)

Exercise: Quick check, fraction ligated >= 0.004? ATCAATGGGTT A28G G34T T37G A40G
Key: false (0)

Exercise: Record TAAAGGAGTGA T23A A29T ; criterion: fraction ligated no lower than 0.004. Met?
Key: true (1)

Exercise: Check if fraction ligated >= 0.004 (inclusive). Item: CAAAGGAGTGA T23A A29T
Key: false (0)

Exercise: API: above_or_equal(metric=fraction ligated, cutoff=0.004) for item AGAAGGATTGA T23A A29T
Key: true (1)

Exercise: Does TCGAGGATTGA T23A A29T have a reported fraction ligated of at least 0.004?
Key: true (1)

Exercise: Say whether TCGAGGAGTGA T23A A29T shows fraction ligated of 0.004 or more.
Key: false (0)

Exercise: State whether the measured fraction ligated reaches 0.004, counting equality as reaching it, for `ATGATGTGTGA`
Key: false (0)

Exercise: Does the variant `ACAGAGATTGA` have recorded fraction ligated that is 0.004 or more?
Key: false (0)

Exercise: Reported fraction ligated at or above 0.004? TCAAGATGTGA A28T A29G
Key: false (0)

Exercise: Could you tell me if the measured fraction ligated of ATAATGGAGTG G34T reaches 0.004 or more?
Key: true (1)

Exercise: Textbook exercise: given the entry ATCAGATGTGA A29T , state whether its fraction ligated is greater than or equal to 0.004.
Key: true (1)

Exercise: Does the variant `ATAGAGATGTG` have recorded fraction ligated that is 0.004 or more?
Key: true (1)

Exercise: Please tell me: is the variant TAGATGGAGTG T23A G34T at or over 0.004 in terms of fraction ligated?
Key: true (1)

Exercise: Record TAGAGGATTGA A29T ; criterion: fraction ligated no lower than 0.004. Met?
Key: true (1)

Exercise: Determine whether this variant has fraction ligated no lower than 0.004: `ACAGTGATGTG`
Key: false (0)

Exercise: Reported fraction ligated at or above 0.004? AAGAGGATGTA A29T
Key: false (0)

Exercise: // inclusive: fraction ligated at least 0.004? input: ATCAAATAGTA A28G G34T
Key: false (0)

Exercise: Entry CAGATGGAGTG T23A : is its fraction ligated no less than 0.004?
Key: false (0)

Exercise: Please tell me: is the variant `ACAATGGTGTA` at or over 0.004 in terms of fraction ligated?
Key: false (0)

Exercise: Hello, I need to know if TCGAGGTGTGA T23A A29T has measured fraction ligated not below 0.004. Thanks!
Key: false (0)

Exercise: Exam item: decide whether the reported fraction ligated for `ATAGGGAGTGA` is at least 0.004.
Key: false (0)

Exercise: Does `TCAGTGGAGTA` have a reported fraction ligated of at least 0.004?
Key: false (0)

Exercise: Reported fraction ligated at or above 0.004? ATCAGGAGTGA A29T
Key: false (0)

Exercise: Tell me whether fraction ligated is at least 0.004 here: `ACAGATGTGTG`
Key: true (1)

Exercise: Could you please find out whether `ACAGTGATTGA` has fraction ligated that meets 0.004 or exceeds it?
Key: false (0)

Exercise: Please tell me: is the variant `ATCGGGTGTGA` at or over 0.004 in terms of fraction ligated?
Key: false (0)

Exercise: In plain terms: is recorded fraction ligated at least 0.004 for ATCATGGGTGA A28G ?
Key: false (0)

Exercise: Determine whether measured fraction ligated meets or exceeds 0.004 for TCGATGATGTA T23A
Key: false (0)

Exercise: // inclusive: fraction ligated at least 0.004? input: ACAGATGGGTT G34A G35T T37G A40G
Key: false (0)

Exercise: Is the recorded value of fraction ligated equal to or greater than 0.004 for this variant? ACAAGGATGTG A29T
Key: true (1)

Exercise: Is the recorded value of fraction ligated equal to or greater than 0.004 for this variant? `ATGAGGATTGA`
Key: true (1)

Exercise: Hello, I need to know if `TCAGTGTGTGA` has measured fraction ligated not below 0.004. Thanks!
Key: false (0)

Exercise: Check if fraction ligated >= 0.004 (inclusive). Item: `ATAATGGAGTG`
Key: true (1)

Exercise: Does the reported fraction ligated for ATCAATAGTGA A28G fall at or above the 0.004 mark?
Key: false (0)

Exercise: Determine whether measured fraction ligated meets or exceeds 0.004 for CAGATGGAGTG G34T
Key: true (1)

Exercise: hey, is fraction ligated for this one >= 0.004? TCGAGATGTGA A29G
Key: false (0)

Exercise: Determine whether this variant has fraction ligated no lower than 0.004: TAGAGGATGTA T23A A29T
Key: false (0)

Exercise: Is the recorded value of fraction ligated equal to or greater than 0.004 for this variant? `ACAATGGAGTA`
Key: false (0)

Exercise: Form field: fraction ligated at least 0.004? Entry: TAGATGTGTGA T23A
Key: false (0)

Exercise: Tell me whether fraction ligated is at least 0.004 here: CAAAGGATGTG T23A A29T
Key: true (1)

Exercise: Reported fraction ligated reaches at least 0.004 for TCAGATGAGTT G34T T37G ?
Key: false (0)

Exercise: Does ACAAGGATTGA A29T have a reported fraction ligated of at least 0.004?
Key: true (1)

Exercise: // inclusive: fraction ligated at least 0.004? input: TCAGATGAGTG T23A
Key: true (1)

Exercise: In plain terms: is recorded fraction ligated at least 0.004 for AGAAGGAGTGA T23A A29T ?
Key: false (0)

Exercise: Item `TCAATGGAGTG` with fraction ligated of 0.004 or above?
Key: true (1)

Exercise: Decide: fraction ligated of ATCGTGGAGTT G34T T37G >= 0.004?
Key: false (0)

Exercise: Is fraction ligated at least 0.004? Consider `TCAGTGGGTGA`
Key: false (0)

Exercise: Decide: fraction ligated of ATCAAATGGTA A28G G34A >= 0.004?
Key: false (0)

Exercise: Does `ATAGAGATTGA` have a reported fraction ligated of at least 0.004?
Key: false (0)

Exercise: Would you say TCAATGGAGTA G34T shows fraction ligated at minimum 0.004?
Key: true (1)

Exercise: Threshold query (fraction ligated >= 0.004) on AAGAGATGTGA A29G
Key: false (0)

Exercise: For this variant, is measured fraction ligated 0.004 or higher? ATCGGATGTGA A29T
Key: false (0)

Exercise: Tell me whether fraction ligated is at least 0.004 here: ATCAATGGGTG A28G G34T
Key: true (1)

Exercise: Given AGAAGATGTGA A28T A29G , state whether its fraction ligated is at least 0.004.
Key: true (1)

Exercise: Test whether the variant ATGAGGATGTG A29T records fraction ligated of 0.004 or higher.
Key: true (1)

Exercise: Quick check: does `ATGATATGTGA` have fraction ligated greater than or equal to 0.004?
Key: true (1)

Exercise: Would you say `ATAGATGATGA` shows fraction ligated at minimum 0.004?
Key: false (0)

Exercise: # bool: fraction ligated of TCGATGGAGTG G34T >= 0.004
Key: true (1)

Exercise: Threshold query (fraction ligated >= 0.004) on ACAGGGATTGA A29T
Key: true (1)

Exercise: Record CGAAGGTGTGA A29T ; criterion: fraction ligated no lower than 0.004. Met?
Key: false (0)

Exercise: Please check the record ACGAGGATGTG A29T and state if its fraction ligated is at or above 0.004.
Key: true (1)

Exercise: // inclusive: fraction ligated at least 0.004? input: ATCAAAATGTA A28G
Key: false (0)

Exercise: Identify whether the reported fraction ligated of the following variant is 0.004 or greater: `ATAATGGTTGA`
Key: false (0)

Exercise: Say whether ATCATGGAGTG A28G G34T shows fraction ligated of 0.004 or more.
Key: true (1)

Exercise: Decide: fraction ligated of ATCAATTGTGA A28G >= 0.004?
Key: false (0)

Exercise: Exam item: decide whether the reported fraction ligated for ATCAAATGGTT A28G G34A T37G is at least 0.004.
Key: false (0)

Exercise: Dear colleague, could you confirm whether ATCAAGGTGTA A28G has fraction ligated at or above 0.004?
Key: true (1)

Exercise: Does TAGAGGATGTA T23A have a reported fraction ligated of at least 0.004?
Key: false (0)

Exercise: fraction ligated >= 0.004 for TCAAGATGTGA T23A A29G ?
Key: false (0)
